- Test system: Schistosoma mansoni
- experiment description: Schistosomicidal (vermicidal) activity in infected mice, single oral treatment, worm count reduction
- Assay type: in vivo
- condition details: 456 h, Albino-Mäuse infected s.c. with cercariae of a Liberia-Stamm of Schistosoma mansoni, single peroral treatment 46 days after infection, section after 19 days, dose giving 50% reduction of worm count (Probitmethode), read-out: VD50 in mg/kg p.o.
Below, each of the compounds is paired with its reported ED50 value.
Answer format: numeric, mg/kg implied, no suffix.

# annotated cases, reported ED50 shown
INSERT INTO results (compound_smiles, property_measured, unit_spec, experimental_result) VALUES
  ('CN(C)CCn1c2ccccc2c(=NN=C2NCCS2)c2ccccc21', 'ED50', 'mg/kg', 6.4),
  ('NCCn1c2ccccc2c(=NNc2nccs2)c2ccccc21', 'ED50', 'mg/kg', 2.6);

# ---- query compound ----
Task: # get_value(readout='ED50', item= CN(C)CCCn1c2ccccc2c(=NNc2nccs2)c2ccccc21.Cl.Cl )
Result: 3.5

###

Below, each of the compounds is paired with its reported LD50 value.
- experiment description: Acute toxicity (DL50) after single oral administration to mice
- condition details: mouse, in vivo, read-out: DL50 in mg/kg p.o.

# annotated cases, reported LD50 shown
INSERT INTO results (compound, experimental_result) VALUES
  ('CN(C)CCCn1c2ccccc2c(=NN=C2NCCS2)c2ccccc21', '125 to 250 mg/kg'),
  ('NCCn1c2ccccc2c(=NNc2nccs2)c2ccccc21', '156 to 312 mg/kg'),
  ('CN(C)CCn1c2ccccc2c(=NNc2nccs2)c2ccccc21', '312 to 625 mg/kg'),
  ('CCN(CC)CCn1c2ccccc2c(=NNc2nccs2)c2ccccc21', '> 5000 mg/kg'),
  ('CC(=O)N1CCN(CCn2c3ccccc3c(=NNc3nccs3)c3ccccc32)CC1', '312 to 625 mg/kg'),
  ('CN1CCN(CCn2c3ccccc3c(=NN=C3NCCS3)c3ccccc32)CC1', '156 to 312 mg/kg');

# ---- query compound ----
Task: # get_value(readout='LD50', item= CN(C)CCn1c2ccccc2c(=NN=C2NCCS2)c2ccccc21 )
Result: 250 to 500 mg/kg

###

- Test system: Schistosoma mansoni
- experiment description: Schistosomicidal (vermicidal) activity in infected mice, single oral treatment, worm count reduction
- Type: in vivo
- condition details: 456 h, Albino-Mäuse infected s.c. with cercariae of a Liberia-Stamm of Schistosoma mansoni, single peroral treatment 46 days after infection, section after 19 days, dose giving 50% reduction of worm count (Probitmethode), read-out: VD50 in mg/kg p.o.
Structures can show the parent of a compound that is named as a salt.
Friendly reminder: ED50 below 5 mg/kg is yes, at or above is no.

Solved cases (5 shown):
INSERT INTO results (compound, experimental_system, class) VALUES
  ('CC(=O)N1CCN(CCn2c3ccccc3c(=NNc3nccs3)c3ccccc32)CC1', 'Schistosoma mansoni', 'yes'),
  ('CCN(CC)CCn1c2ccccc2c(=NNc2nccs2)c2ccccc21', 'Schistosoma mansoni', 'yes'),
  ('CN1CCN(CCn2c3ccccc3c(=NN=C3NCCS3)c3ccccc32)CC1', 'Schistosoma mansoni', 'yes'),
  ('CCN(CC)CCn1c2ccccc2c(=NN=C2NCCS2)c2ccccc21', 'Schistosoma mansoni', 'no'),
  ('c1ccc2c(c1)c(=NNc1nccs1)c1ccccc1n2CCN1CCCCC1 [HCl]', 'Schistosoma mansoni', 'no');

Task: Given the entry CN1CCN(CCn2c3ccccc3c(=NNc3nccs3)c3ccccc32)CC1 [HCl] , would its reported ED50 be below 5 mg/kg?
Result: yes

Task: Given the entry CC(=O)N1CCN(CCn2c3ccccc3c(=NN=C3NCCS3)c3ccccc32)CC1 , would its reported ED50 be below 5 mg/kg?
Result: yes

Task: Given the entry CN(C)CCCn1c2ccccc2c(=NN=C2NCCS2)c2ccccc21 , would its reported ED50 be below 5 mg/kg?
Result: yes

Task: Given the entry c1ccc2c(c1)c(=NN=C1NCCS1)c1ccccc1n2CCN1CCCC1 , would its reported ED50 be below 5 mg/kg?
Result: no
